All figures here come from PubChem BioAssay (NCI).

Test system: CAKI-1 renal
Assay: NCI-60 one-dose screen, 48 h (100 = growth as untreated, 0 = no growth, -100 = all killed)
Settings: 10 µM unless noted
The panel holds about 83,000 compounds, 20% with a hit somewhere; the sample as a whole holds those more often.
Labelling: growth reported below 80% becomes T; at or above becomes F.

Observe how each entry below is paired with its result.
# smiles.string, classification
data = [
    ("CCn1cc(-c2cc(-c3ccc(Cl)cc3)nc(N)n2)c(-c2ccc(Br)cc2)n1", "T"),
    ("CC1=CC[C@@H]2C(C)(C)C(=O)CC[C@@]2(C)[C@@H]1COc1ccc2ccc(=O)oc2c1", "T"),
    ("O=C1NC(=O)c2cc([N+](=O)[O-])cc3cccc1c23", "F"),
    ("Cc1ccc(NC(=O)N[C@@H](Cc2cc(F)cc(F)c2)C(=O)N[C@@H]2C(=O)N3CCC[C@H]3C(=O)N3CCCC[C@H]3C(=O)N[C@@H](C)C(=O)N3C[C@H](C)C[C@H]3C(=O)O[C@H]2C)cc1", "T"),
]

Data request: Record CC(C)CCSC1=CC(=O)c2ccccc2C1=O : is its growth strictly below 80%?
Data returned: T

Data request: Record O=C1Nc2ccccc2/C1=C/C(=O)c1ccc(N2CCCCC2)cc1 : is its growth strictly below 80%?
Data returned: T
